Method summary: yeast display, Sf9 membrane polyspecificity reagent, FACS + sequencing; frameworks hold sequencing errors
Measurement type: polyreactivity (PSR sort gate)

{"Chain": "QVHLVESGGGLVQAGGSLRISCAASGSTFYYYTMGWYRQAPGKERELVAISWDGDSTYYADSVKGRFTISRDNAKNTVYLQMNSLKPEDTAVYYFNAEYTWSGTKIYTYKYDFWGPGTQVTVSS", "Test value": "low polyreactivity"}
{"Chain": "QVQLVESGGGLVQAGGSLRLSCADSGRIFYANAMGWYRQAPGKERELVAAISSGGSTYYADSVKGRFTISRDNAKNTVYLQMNSLKPEDTAVYYCAVYTHKIVRPEYDYWGQGTQVTVSA", "Test value": "low polyreactivity"}
{"Chain": "QVQLVESGGGLVQAGGSLRLSCAASGIIFTNNAIGWYRQAPGKERELGAAITSGGRTYYADSVKGRFTISRDNAKNTVSLQMNSLKPEDTAVYYCNARYYYGGWRVGYWGQGTQLTVSS", "Test value": "high polyreactivity"}
{"Chain": "QVQLVESGGGLVQAGGSLRLIFAASGSIFNRYTMGWYRQAPGKERELVADISKSGTRTYYADSVKGRFTISRDNAKNTVYLQMNSLKPEDTAVYYCAKSSVAVYQTRYDYWGQGTQVTVSS", "Test value": "high polyreactivity"}

Name the reported polyreactivity (PSR sort gate) value associated with the sequence QVQLVESGGGLVQAGGSLRLSCAASGFIFYSYPMGWYRKAPGKERALVAAITEDGDSTYYADSVKGRFTISRDNAKNTVYLQMNSLKPVDTAVYYCNTDLTFNGTSGDYDYWGQGTQVTVSS
low polyreactivity
